Molecular target: Recombinant Human Aromatase (HA) (Homo sapiens)
Sequence (P11511 whole entry): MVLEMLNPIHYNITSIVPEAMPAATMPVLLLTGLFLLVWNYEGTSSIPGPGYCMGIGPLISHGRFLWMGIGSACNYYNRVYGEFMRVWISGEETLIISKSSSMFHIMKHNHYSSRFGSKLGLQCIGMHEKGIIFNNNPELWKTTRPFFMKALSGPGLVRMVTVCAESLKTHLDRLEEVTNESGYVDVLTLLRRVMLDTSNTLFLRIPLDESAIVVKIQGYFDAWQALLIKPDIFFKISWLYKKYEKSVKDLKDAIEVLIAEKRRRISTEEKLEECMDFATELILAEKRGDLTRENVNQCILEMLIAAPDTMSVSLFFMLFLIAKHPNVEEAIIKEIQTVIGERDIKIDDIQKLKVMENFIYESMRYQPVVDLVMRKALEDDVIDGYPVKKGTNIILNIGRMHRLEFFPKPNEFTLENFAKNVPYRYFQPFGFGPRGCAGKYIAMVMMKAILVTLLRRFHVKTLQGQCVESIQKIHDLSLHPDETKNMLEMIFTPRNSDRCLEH
Experiment: HA inhibition assay (Aromatase Inhibitor Screening Kit, fluorogenic substrate)
Type: biochemical

{"columns": ["molecule", "HA inhibitory activity (in words)"],
 "data": [
  ["COc1ccc(-c2cc(=O)c3c(OC)c(OC)c(OC)c(OC)c3o2)cc1", "inactive"],
  ["CC1=CC(=O)CC(C)(C)[C@@]1(O)/C=C/C(C)=C\\C(=O)O [Abscisic acid]", "inactive"],
  ["C[C@@H]1O[C@@H](OC[C@H]2O[C@@H](Oc3c(-c4ccc(O)c(O)c4)oc4cc(O)cc(O)c4c3=O)[C@H](O)[C@@H](O)[C@@H]2O)[C@H](O)[C@H](O)[C@H]1O", "inactive"]
]}
